# CONDITION SET: 338.15 K, Wilhelmy-plate method
± gives the expanded uncertainty stated by the source.
MEASURE NAME: surface tension liquid-gas

COMPOUND | MEASURE NAME | ASSAY VALUE
CC(=O)OCc1ccccc1 [benzyl ethanoate] | surface tension liquid-gas | 32.2 ± 0.4 mN/m
CCOC(=O)c1ccccc1 [ethyl benzoate] | surface tension liquid-gas | 30.2 ± 0.4 mN/m
CCOC(=O)Cc1ccccc1 [ethyl phenylacetate] | surface tension liquid-gas | 30.6 ± 0.4 mN/m
CCC(=O)OCc1ccccc1 [benzyl propanoate] | surface tension liquid-gas | 30.5 ± 0.4 mN/m
CCOC(=O)CC(C)C [ethyl 3-methylbutanoate] | surface tension liquid-gas | 19.6 ± 0.4 mN/m
CCCC(=O)OCCC(C)C [3-methylbutyl butanoate] | surface tension liquid-gas | 21.6 ± 0.4 mN/m
CCOC(=O)c1ccccc1O [ethyl 2-hydroxybenzoate] | surface tension liquid-gas | 32 ± 0.4 mN/m
COC(=O)c1ccccc1 [methyl benzoate] | surface tension liquid-gas | 32.5 ± 0.4 mN/m
CC(=O)OCCC(C)C [3-methylbutyl ethanoate] | surface tension liquid-gas | 20.6 ± 0.4 mN/m
CCCCCCCC(=O)OCC [ethyl octanoate] | surface tension liquid-gas | 22.8 ± 0.4 mN/m
CCCCCC(=O)OCC [ethyl hexanoate] | surface tension liquid-gas | 21.8 ± 0.4 mN/m
CCOC(=O)CC(C)=O [ethyl 3-oxobutanoate] | surface tension liquid-gas | 28.2 ± 0.4 mN/m

* * *

# CONDITION SET: 328.15 K, Wilhelmy-plate method
Numbers after ± are expanded uncertainties.
MEASURE NAME: surface tension liquid-gas

COMPOUND | MEASURE NAME | ASSAY VALUE
CCC(=O)OCc1ccccc1 [benzyl propanoate] | surface tension liquid-gas | 31.6 ± 0.4 mN/m
CCOC(=O)CC(C)=O [ethyl 3-oxobutanoate] | surface tension liquid-gas | 29.1 ± 0.4 mN/m
CCOC(=O)c1ccccc1O [ethyl 2-hydroxybenzoate] | surface tension liquid-gas | 33.4 ± 0.4 mN/m
COC(=O)c1ccccc1 [methyl benzoate] | surface tension liquid-gas | 33.7 ± 0.4 mN/m
CCCCCCCC(=O)OCC [ethyl octanoate] | surface tension liquid-gas | 23.8 ± 0.4 mN/m
CCOC(=O)Cc1ccccc1 [ethyl phenylacetate] | surface tension liquid-gas | 31.6 ± 0.4 mN/m
CCCCCC(=O)OCC [ethyl hexanoate] | surface tension liquid-gas | 22.7 ± 0.4 mN/m
CCCC(=O)OCCC(C)C [3-methylbutyl butanoate] | surface tension liquid-gas | 22.4 ± 0.4 mN/m
CCOC(=O)CC(C)C [ethyl 3-methylbutanoate] | surface tension liquid-gas | 20.7 ± 0.4 mN/m
CC(=O)OCCC(C)C [3-methylbutyl ethanoate] | surface tension liquid-gas | 21.6 ± 0.4 mN/m
CC(=O)OCc1ccccc1 [benzyl ethanoate] | surface tension liquid-gas | 33.2 ± 0.4 mN/m
CCOC(=O)c1ccccc1 [ethyl benzoate] | surface tension liquid-gas | 31.5 ± 0.4 mN/m

* * *

# CONDITION SET: 318.15 K; 101.33 kPa; Liquid; Capillary tube (Ostwald / Ubbelohde) method
viscosity reference
MEASURE NAME: viscosity (mPa·s)

COMPOUND | ASSAY VALUE
CCCC(=O)OCCC(C)C [3-methylbutyl butanoate] | 0.827
CC(=O)OCCC(C)C [3-methylbutyl ethanoate] | 0.627
CC(=O)OCc1ccccc1 [benzyl ethanoate] | 1.432
CCOC(=O)c1ccccc1 [ethyl benzoate] | 1.368
CCOC(=O)CC(C)C [ethyl 3-methylbutanoate] | 0.566
CCCCCC(=O)OCC [ethyl hexanoate] | 0.711
CCC(=O)OCc1ccccc1 [benzyl propanoate] | 1.515
COC(=O)c1ccccc1 [methyl benzoate] | 1.297
CCOC(=O)CC(C)=O [ethyl 3-oxobutanoate] | 1.144
CCCCCCCC(=O)OCC [ethyl octanoate] | 1.027
CCOC(=O)Cc1ccccc1 [ethyl phenylacetate] | 1.624
CCOC(=O)c1ccccc1O [ethyl 2-hydroxybenzoate] | 1.842

* * *

# CONDITION SET: 338.15 K; 101.33 kPa; Liquid
Threshold 1000 kg/m3: mass density strictly smaller gives Condition met, otherwise Condition not met.

COMPOUND | CATEGORY
COC(=O)c1ccccc1 [methyl benzoate] | Condition not met
CCCC(=O)OCCC(C)C [3-methylbutyl butanoate] | Condition met
CCOC(=O)c1ccccc1O [ethyl 2-hydroxybenzoate] | Condition not met
CCCCCCCC(=O)OCC [ethyl octanoate] | Condition met
CCCCCC(=O)OCC [ethyl hexanoate] | Condition met
CCOC(=O)CC(C)C [ethyl 3-methylbutanoate] | Condition met
CC(=O)OCCC(C)C [3-methylbutyl ethanoate] | Condition met

* * *

# CONDITION SET: 328.15 K; 101.33 kPa; Liquid; Capillary tube (Ostwald / Ubbelohde) method
Threshold 1 mPa·s: viscosity strictly smaller gives YES, otherwise NO.

MOLECULE | CATEGORY
COC(=O)c1ccccc1 [methyl benzoate] | NO
CCOC(=O)Cc1ccccc1 [ethyl phenylacetate] | NO
CCCCCCCC(=O)OCC [ethyl octanoate] | YES
CCOC(=O)c1ccccc1O [ethyl 2-hydroxybenzoate] | NO
CCOC(=O)CC(C)C [ethyl 3-methylbutanoate] | YES
CCCCCC(=O)OCC [ethyl hexanoate] | YES

* * *

# CONDITION SET: 318.15 K; 101.33 kPa; Liquid
Numbers after ± are expanded uncertainties.
MEASURE NAME: mass density

MOLECULE | ASSAY VALUE
CCC(=O)OCc1ccccc1 [benzyl propanoate] | 1009.15 ± 0.36 kg/m3
CCOC(=O)c1ccccc1 [ethyl benzoate] | 1022.73 ± 0.24 kg/m3
CCOC(=O)c1ccccc1O [ethyl 2-hydroxybenzoate] | 1105.6 ± 0.44 kg/m3
CCOC(=O)Cc1ccccc1 [ethyl phenylacetate] | 1008.26 ± 0.35 kg/m3
CC(=O)OCc1ccccc1 [benzyl ethanoate] | 1032.03 ± 0.31 kg/m3
CC(=O)OCCC(C)C [3-methylbutyl ethanoate] | 848.17 ± 0.56 kg/m3
COC(=O)c1ccccc1 [methyl benzoate] | 1064.62 ± 0.52 kg/m3
CCCC(=O)OCCC(C)C [3-methylbutyl butanoate] | 840.55 ± 0.55 kg/m3
CCCCCCCC(=O)OCC [ethyl octanoate] | 844.87 ± 0.53 kg/m3
CCCCCC(=O)OCC [ethyl hexanoate] | 847.5 ± 0.49 kg/m3
CCOC(=O)CC(C)C [ethyl 3-methylbutanoate] | 839.81 ± 0.65 kg/m3

* * *

# CONDITION SET: 308.15 K; 101.33 kPa; Liquid
# binarize mass density: threshold 1000 kg/m3 inclusive, high side met, low side not met

MOLECULE | CATEGORY
CCCC(=O)OCCC(C)C [3-methylbutyl butanoate] | not met
COC(=O)c1ccccc1 [methyl benzoate] | met
CC(=O)OCCC(C)C [3-methylbutyl ethanoate] | not met
CCCCCCCC(=O)OCC [ethyl octanoate] | not met
CCOC(=O)CC(C)C [ethyl 3-methylbutanoate] | not met
CC(=O)OCc1ccccc1 [benzyl ethanoate] | met
CCCCCC(=O)OCC [ethyl hexanoate] | not met
CCOC(=O)c1ccccc1O [ethyl 2-hydroxybenzoate] | met
CCOC(=O)c1ccccc1 [ethyl benzoate] | met

* * *

# CONDITION SET: 308.15 K, Wilhelmy-plate method
MEASURE NAME: surface tension liquid-gas (mN/m)

MOLECULE | ASSAY VALUE
CCCCCC(=O)OCC [ethyl hexanoate] | 24.5
CCC(=O)OCc1ccccc1 [benzyl propanoate] | 33.6
CC(=O)OCc1ccccc1 [benzyl ethanoate] | 35.3
CCCC(=O)OCCC(C)C [3-methylbutyl butanoate] | 24
CCOC(=O)CC(C)=O [ethyl 3-oxobutanoate] | 31.1
CCOC(=O)c1ccccc1 [ethyl benzoate] | 33.3
CCCCCCCC(=O)OCC [ethyl octanoate] | 25.5
CCOC(=O)c1ccccc1O [ethyl 2-hydroxybenzoate] | 35.2
CCOC(=O)CC(C)C [ethyl 3-methylbutanoate] | 22.5
CC(=O)OCCC(C)C [3-methylbutyl ethanoate] | 23.4
CCOC(=O)Cc1ccccc1 [ethyl phenylacetate] | 33.5
COC(=O)c1ccccc1 [methyl benzoate] | 35.8

* * *

# CONDITION SET: 348.15 K; 101.33 kPa; Liquid; Capillary tube (Ostwald / Ubbelohde) method
Threshold 0.9 mPa·s: viscosity strictly smaller gives met, otherwise not met.

COMPOUND | CATEGORY
CCOC(=O)c1ccccc1O [ethyl 2-hydroxybenzoate] | not met
CCOC(=O)Cc1ccccc1 [ethyl phenylacetate] | not met
CCCCCCCC(=O)OCC [ethyl octanoate] | met
CC(=O)OCc1ccccc1 [benzyl ethanoate] | not met
COC(=O)c1ccccc1 [methyl benzoate] | met
CC(=O)OCCC(C)C [3-methylbutyl ethanoate] | met
CCOC(=O)CC(C)C [ethyl 3-methylbutanoate] | met
CCC(=O)OCc1ccccc1 [benzyl propanoate] | not met
CCCC(=O)OCCC(C)C [3-methylbutyl butanoate] | met
CCCCCC(=O)OCC [ethyl hexanoate] | met
CCOC(=O)CC(C)=O [ethyl 3-oxobutanoate] | met
